Test system: Monochoria vaginalis
Test: Weed control effect evaluation in transplanted rice field
Format: in vivo
Parameters: key: Level 10: completely dead; Level 9: above 90% growth inhibition rate; Level 8: above 80% growth inhibition rate; Level 7: above 70% growth inhibition rate; Level 6: above 60% growth inhibition rate; Level 5: above 50% growth inhibition rate; Level 4: above 30% growth inhibition rate; Level 3: above 20% growth inhibition rate; Level 2: above 10% growth inhibition rate; Level 1: above 1-10% growth inhibition rate; Level 0: no effect
Details: transplanted rice field pot test, application rate 60 g/ha, 14 days after treatment
Listed next: entries and their corresponding Weed control effect, Monochoria vaginalis (activity level).
QUANTITY: Weed control effect, Monochoria vaginalis (activity level)

1. C#CCOCc1c(S(C)(=O)=O)ccc(C(=O)c2c(C)nn(C)c2OC(=O)c2cn(C)nc2C)c1C 10
2. C#CCOCc1c(S(C)(=O)=O)ccc(C(=O)c2c(CC)nn(CC)c2OC(=O)c2c(Cl)c(CC)nn2C)c1Cl 10
